Measured pEC50 by item
Test system: HIV-1 isolate 4xAZT/Y181C
ASSAY METHOD TEXT: Cytopathic cell killing assay, cross-resistance profile, infected MT-4 cells
Format: cell-based
CONDITION SUMMARY: Human immunodeficiency virus 1, MT4, Table 8; isolate 4XAZT /Y181C
pEC50: −log10 of the molar value.

INSERT INTO results (compound, measurement) VALUES
  ('Cc1ccnc2c1NC(=O)c1cccnc1N2C1CC1 [nevirapine, reference compound]', 5.52),
  ('CC(=O)N(C)c1cccc2c1nc(-c1c(F)cccc1F)n2Cc1c(F)cccc1F [compound 57]', '< 5.00'),
  ('Cc1cccc2c1nc(-c1c(F)cccc1F)n2Cc1c(F)cccc1F [compound 33]', 5.46),
  ('Fc1cccc(F)c1Cn1c(-c2c(F)cccc2F)nc2c(Cl)cccc21 [compound 55]', '< 4.70'),
  ('Fc1cccc(F)c1C1SCc2nc3ccccc3n21 (stereo not drawn) [TZB, reference compound]', '< 5.00');

Kindly review the next compound as well.
Sample CNc1cccc2c1nc(-c1c(F)cccc1F)n2Cc1c(F)cccc1F [compound 58] — what was its pEC50? < 4.70

====

Measured EC50 by item
System: HIV-1 variant Y188H
ASSAY METHOD TEXT: Cytopathic cell killing assay, cross-resistance profile, infected MT-4 cells
Assay type: cell-based
CONDITION SUMMARY: Human immunodeficiency virus 1, MT4
Unit µM implied. Number only.

INSERT INTO assay_data (compound, measurement) VALUES
  ('CCc1cccc2c1nc(-c1c(F)cccc1F)n2Cc1c(F)cccc1F [compound 47]', 13.2);

Kindly review the next compound as well.
Sample COc1cccc2c1nc(-c1c(F)cccc1F)n2Cc1c(F)cccc1F [compound 44] — what was its EC50? 0.26

====

TESTED TARGET: HIV-1 WT RT (Human immunodeficiency virus type 1 group M subtype B)
Construct: purified RT protein (0.015 mg/mL) was incubated in a 100 µL reaction mixture
ASSAY METHOD TEXT: biochemical
CONDITION SUMMARY: Table 2; WT RT, 10 µM drug concentration; read-out: %inhibn (10µM)
Entry flag: Yes if inhibition at 10 µM reaches 60%; No if it does not.

Example entries and their recorded answers appear below.
INSERT INTO results (molecule, class_name) VALUES
  ('Cc1cccc2c1nc(-c1c(F)cccc1F)n2Cc1c(Cl)cccc1Cl [compound 30]', 'No'),
  ('Cc1cccc2c1nc(-c1c(F)cccc1F)n2Cc1ccccc1 [compound 29]', 'Yes'),
  ('Fc1cccc(F)c1-c1nc2ccccc2n1Cc1ccccc1 [compound 28]', 'Yes'),
  ('O=S(=O)(c1ccccc1)n1c(-c2c(F)cccc2F)nc2ccccc21 [compound 45]', 'No');

Turning now to a further molecule:
Is inhibition at 10 µM for Cc1cccc2c1nc(-c1c(F)cccc1F)n2S(=O)(=O)c1ccccc1 [compound 46] at or above 60%? No

====

TESTED TARGET: HIV-1 WT RT (Human immunodeficiency virus type 1 group M subtype B, UniProt P03366)
Construct: purified RT protein (0.015 mg/mL) was incubated in a 100 µL reaction mixture
ASSAY METHOD TEXT: biochemical
CONDITION SUMMARY: Table 11; WT RT; read-out: IC50
PARAMETER: pIC50
API: returns pIC50 as number; meaning -log10 of concentration in mol/L.

INSERT INTO results (compound, measurement) VALUES
  ('CN(C)c1cccc2c1nc(-c1c(F)cccc1F)n2Cc1c(F)cccc1F [compound 59]', 4.40),
  ('Fc1cccc(F)c1Cn1c(-c2c(F)cccc2F)nc2c(Cl)cccc21 [compound 55]', 5.58),
  ('Fc1cccc(F)c1Cn1c(-c2c(F)cccc2F)nc2c(Br)cccc21 [compound 54]', 5.79),
  ('Fc1cccc(F)c1Cn1c(-c2c(F)cccc2F)nc2ccccc21 [compound 26]', 6.96),
  ('COc1cccc2c1nc(-c1c(F)cccc1F)n2Cc1c(F)cccc1F [compound 44]', 8.14);

Sample Cc1cccc2c1nc(-c1c(F)cccc1F)n2Cc1c(F)cccc1F [compound 33] — what was its pIC50? 6.70

====

System: HIV-1 variant L100I
ASSAY METHOD TEXT: Cytopathic cell killing assay, cross-resistance profile, infected MT-4 cells
Format: cell-based
CONDITION SUMMARY: Human immunodeficiency virus 1, MT4, Table 8; isolate 1.1001
PARAMETER: pEC50
API: returns pEC50 as number; meaning -log10 of concentration in mol/L.

INSERT INTO assay_data (compound, parameter, measurement) VALUES
  ('CNc1cccc2c1nc(-c1c(F)cccc1F)n2Cc1c(F)cccc1F', 'pEC50', 6.40);

Sample `Cc1cccc2c1nc(-c1c(F)cccc1F)n2Cc1c(F)cccc1F` — what was its pEC50? 6.52

Sample `Fc1cccc(F)c1Cn1c(-c2c(F)cccc2F)nc2c(Cl)cccc21` — what was its pEC50? 6.70

Sample `COc1cccc2c1nc(-c1c(F)cccc1F)n2Cc1c(F)cccc1F` — what was its pEC50? 7.00

Sample `CCc1cccc2c1nc(-c1c(F)cccc1F)n2Cc1c(F)cccc1F` — what was its pEC50? 6.22

Sample Cc1ccnc2c1NC(=O)c1cccnc1N2C1CC1 [nevirapine, reference compound] — what was its pEC50? 6.70

Sample Fc1cccc(F)c1C1SCc2nc3ccccc3n21 (centres unmarked) [TZB, reference compound] — what was its pEC50? 5.18

Sample `CC(=O)N(C)c1cccc2c1nc(-c1c(F)cccc1F)n2Cc1c(F)cccc1F` — what was its pEC50? 5.77

====

Tested on: HIV-1 variant Y188C
ASSAY METHOD TEXT: Cytopathic cell killing assay, cross-resistance profile, infected MT-4 cells
Assay type: cell-based
CONDITION SUMMARY: Human immunodeficiency virus 1, MT4, Table 4; isolate Y188C
PARAMETER: EC50 (µM)
Unit µM implied. Number only.

Recall the recorded EC50 for `Fc1cccc(F)c1Cn1c(-c2c(F)cccc2F)nc2ccccc21` with HIV-1 variant Y188C and state it. 11.7

Recall the recorded EC50 for `Cc1cccc2c1nc(-c1c(F)cccc1F)n2Cc1c(F)cccc1F` with HIV-1 variant Y188C and state it. 2.3

====

Measured IC50 by item
TESTED TARGET: HIV-1 WT RT (Human immunodeficiency virus type 1 group M subtype B)
Construct: purified RT protein (0.015 mg/mL) was incubated in a 100 µL reaction mixture
ASSAY METHOD TEXT: biochemical
CONDITION SUMMARY: Table 1; quantity of drug required to reduce WT RT enzyme activity by 50%; read-out: IC50
Unit nM implied. Number only.

INSERT INTO measurements (compound_structure_string, tested_target, measurement) VALUES
  ('Fc1cccc(F)c1Cn1c(-c2c(F)cccc2F)nc2ccccc21', 'HIV-1 WT RT (Human immunodeficiency virus type 1 group M subtype B)', 110);

Sample `Cc1cccc2c1nc(-c1c(F)cccc1F)n2Cc1c(F)cccc1F` — what was its IC50? 200

====

Test system: HIV-1 variant K101E
ASSAY METHOD TEXT: Cytopathic cell killing assay, cross-resistance profile, infected MT-4 cells
Assay type: cell-based
CONDITION SUMMARY: Human immunodeficiency virus 1, MT4, Table 4; isolate K101E
PARAMETER: EC50

Below: 3 compounds and their reported EC50.
INSERT INTO assay_data (compound, measurement) VALUES
  ('CC1Cn2c(=O)[nH]c3cccc(c32)CN1 (stereo not shown) [TIBO, reference compound]', '17.4 µM'),
  ('Cc1cccc2c1nc(-c1c(F)cccc1F)n2Cc1c(F)cccc1F', '16.7 µM'),
  ('Fc1cccc(F)c1C1SCc2nc3ccccc3n21 (stereo not shown) [TZB, reference compound]', '> 20 µM');

Kindly review the next compound as well.
Sample `Fc1cccc(F)c1Cn1c(-c2c(F)cccc2F)nc2ccccc21` — what was its EC50? > 20 µM

====

Test system: HIV-1 variant Y181C
ASSAY METHOD TEXT: Cytopathic cell killing assay, cross-resistance profile, infected MT-4 cells
Format: cell-based
CONDITION SUMMARY: Human immunodeficiency virus 1, MT4, Table 10 (values in µM); isolate Y181C
Measured EC50 by item
Unit µM implied. Number only.

INSERT INTO assay_data (compound, unit_spec, measurement) VALUES
  ('CC1Cn2c(=O)[nH]c3cccc(c32)CN1 (stereo not drawn) [TIBO, reference compound]', 'µM', 4.2);

Sample Fc1cccc(F)c1Cn1c(-c2c(F)cccc2F)nc2c(Cl)cccc21 [compound 55] — what was its EC50? 8.4

Sample Fc1cccc(F)c1Cn1c(-c2c(F)cccc2F)nc2c(Br)cccc21 [compound 54] — what was its EC50? 10.7

Sample COc1cccc2c1nc(-c1c(F)cccc1F)n2Cc1c(F)cccc1F [compound 44] — what was its EC50? 0.26

Sample Cc1cccc2c1nc(-c1c(F)cccc1F)n2Cc1c(F)cccc1F [compound 33] — what was its EC50? 6
